biological target: T1, Dimeric fibrinogen-like domain of mouse (Mus musculus) Ang-2 conjugated to human IgG1 (mouse (Mus musculus)); assay: SPR, antibody captured, room temp
T1 construct: also called Dimeric Mouse Ang-2FD; Mouse Ang-2FD-hFc
T1 sequence (chain, as listed by the source limits assumed): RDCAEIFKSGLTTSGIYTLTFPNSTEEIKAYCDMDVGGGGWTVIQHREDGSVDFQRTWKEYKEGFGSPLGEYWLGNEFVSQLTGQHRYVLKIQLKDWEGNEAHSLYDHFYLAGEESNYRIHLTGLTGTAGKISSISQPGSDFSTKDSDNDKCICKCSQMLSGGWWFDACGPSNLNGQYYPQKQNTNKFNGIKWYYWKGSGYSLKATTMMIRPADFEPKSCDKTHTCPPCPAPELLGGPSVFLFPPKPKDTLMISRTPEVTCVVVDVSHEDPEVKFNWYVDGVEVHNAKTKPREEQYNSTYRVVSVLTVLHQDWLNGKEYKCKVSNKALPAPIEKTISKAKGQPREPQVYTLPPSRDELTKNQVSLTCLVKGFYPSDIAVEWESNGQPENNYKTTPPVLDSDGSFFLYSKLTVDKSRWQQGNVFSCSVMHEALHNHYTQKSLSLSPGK
endpoint_label: Kd (pM)
Use pM as the unit, but write only the number.

# binder, uom, Kd
records = [
    ("H1M724N (antibody, V domains shown) VH: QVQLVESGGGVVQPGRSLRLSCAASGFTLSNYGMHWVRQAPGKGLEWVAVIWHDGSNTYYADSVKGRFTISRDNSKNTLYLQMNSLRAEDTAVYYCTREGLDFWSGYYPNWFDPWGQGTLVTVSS VL: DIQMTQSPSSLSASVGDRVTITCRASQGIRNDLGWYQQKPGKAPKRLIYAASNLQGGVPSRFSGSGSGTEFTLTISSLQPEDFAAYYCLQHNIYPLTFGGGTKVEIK", "pM", 694),
]

// moving on: another record for Kd
Reported Kd of H2M744N (antibody, V domains shown) VH: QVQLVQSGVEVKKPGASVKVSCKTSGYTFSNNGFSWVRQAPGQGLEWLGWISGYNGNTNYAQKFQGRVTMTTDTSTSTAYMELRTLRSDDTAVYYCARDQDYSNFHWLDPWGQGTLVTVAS VL: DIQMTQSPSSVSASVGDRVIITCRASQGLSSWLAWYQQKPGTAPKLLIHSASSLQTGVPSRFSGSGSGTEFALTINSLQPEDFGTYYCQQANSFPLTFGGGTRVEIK : 143
